Test system: rat BT4C glioma cells
ASSAY: 2-Compartment model, subcutaneous model
Assay type: in vivo, Foxn1^nu/nu mouse
RUN CONDITIONS: Flank muscle average (n = 6); arterial blood input
MEASURE: 2-Compartment Vb
Include the unit after the number when you answer.

Lab note: NC(=O)[C@H]([18F])C[C@H](N)C(=O)O [[^18F]FGln, (2S, 4R)-4-[^18F]fluoroglutamine] gave 2-Compartment Vb of 2.33%

###

Test system: rat BT4C glioma cells
ASSAY: 2-Compartment model, subcutaneous model
Format: in vivo, Foxn1^nu/nu mouse
RUN CONDITIONS: Neck tumor average (n = 6); arterial blood input
MEASURE: 2-Compartment Vb
Include the unit after the number when you answer.

Per the reported rat BT4C glioma cells data, NC(=O)[C@H]([18F])C[C@H](N)C(=O)O [[^18F]FGln, (2S, 4R)-4-[^18F]fluoroglutamine] has 2-Compartment Vb of 8.28%
